- Tested on: HOP-62 NSCLC
- assayOverview: NCI-60 one-dose screen, 48 h (100 = growth as untreated, 0 = no growth, -100 = all killed)
- testConditions: 10 µM unless noted
About 83,000 compounds went through this panel and 20% of them were active in at least one assay; those are over-represented in the sample as a whole. The source made the active and inactive calls. How the source made its calls: active means growth percent below 10; inactive means the rest.
recordedMetric: growth

Return growth (reported value) for this molecule: `c1ccc(C2=NN[C@H](c3cn(-c4ccccc4)nc3-c3ccccc3)C2)cc1`
-14.5% (active)

Provide one value: measured growth of CC1=C(C(=O)OC(C)C)C(c2ccc3c(c2)OCO3)NC(=S)N1 (stereo not drawn)
119% (inactive)

Give the reported value of growth for this record: CCc1ccc(C(=O)/C=C/C23c4ccccc4C(c4ccccc42)C2C(=O)NC(=O)C23)cc1 (stereo not drawn)
-3.98% (active)

State, in one line, measured growth of `C=C1C(=O)O[C@H]2[C@H]1CC/C(COC(=O)CCSCCC(=O)OC/C1=C/CC[C@@]3(C)O[C@H]3[C@H]3OC(=O)C(=C)[C@@H]3CC1)=C\CC[C@@]1(C)O[C@@H]21`
86.9% (inactive)

Supply growth value. Item: `O=S(=O)(NCCNc1nccc(-c2c(-c3cccc(F)c3)nc3occn23)n1)c1ccc(Br)cc1`
90.1% (inactive)

Look up and report measured growth for this entry: `Nc1c(C(=O)Nc2ccncc2)sc2nc3c(cc12)CCCCCC3`
96.6% (inactive)

Return growth for the following molecule: `CN(C)C1CCN(Cc2ccc(NC(=O)c3cncc(C#Cc4cnc(N)c5ncccc45)c3)cc2C(F)(F)F)CC1`
75.5% (inactive)

Tell us which growth value is on record for N#CC1CCc2c(c(-c3cn[nH]c3C(F)(F)F)nc3c(F)cc4[nH]ncc4c23)C1 (stereo not drawn)
34.8% (inactive)
